# measurement description: self-splicing fitness, log relative to wild type (ln ratio); higher = more splicing; Tetrahymena group I intron in knt gene, E. coli kanamycin selection, DiMSum; sequences stand for … in CUCUCU…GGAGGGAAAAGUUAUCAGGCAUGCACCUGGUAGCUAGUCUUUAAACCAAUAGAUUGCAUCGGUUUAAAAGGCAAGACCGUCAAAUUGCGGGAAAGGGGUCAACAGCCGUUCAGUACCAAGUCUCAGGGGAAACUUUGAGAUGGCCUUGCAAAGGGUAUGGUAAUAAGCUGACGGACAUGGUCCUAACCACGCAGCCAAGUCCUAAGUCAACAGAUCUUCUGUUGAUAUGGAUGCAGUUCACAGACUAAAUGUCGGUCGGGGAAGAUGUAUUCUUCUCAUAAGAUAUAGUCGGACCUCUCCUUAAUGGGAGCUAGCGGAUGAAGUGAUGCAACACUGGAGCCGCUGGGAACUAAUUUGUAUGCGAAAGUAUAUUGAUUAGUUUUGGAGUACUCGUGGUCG;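 also: selection with 25 µg/mL kanamycin versus none on LB agar overnight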
# condition info: 37 °C
measured metric: self-splicing fitness (ln)

Use the examples below as a reference point.
GCCAAGCAAUAUUACGUGAU    0.385
UAUGAGCAAUAUUACGGAAU    -2.44
CUAGAGCAAUAUUACGCGAC    0.181

Turning to the following sequence.
According to the records, this sequence UGUCAGCAAUAUUACGGGGU displays self-splicing fitness (ln) of -2.49

----------
# measurement description: self-splicing fitness, log relative to wild type (ln ratio); higher = more splicing; Tetrahymena group I intron in knt gene, E. coli kanamycin selection, DiMSum; sequences stand for … in CUCUCU…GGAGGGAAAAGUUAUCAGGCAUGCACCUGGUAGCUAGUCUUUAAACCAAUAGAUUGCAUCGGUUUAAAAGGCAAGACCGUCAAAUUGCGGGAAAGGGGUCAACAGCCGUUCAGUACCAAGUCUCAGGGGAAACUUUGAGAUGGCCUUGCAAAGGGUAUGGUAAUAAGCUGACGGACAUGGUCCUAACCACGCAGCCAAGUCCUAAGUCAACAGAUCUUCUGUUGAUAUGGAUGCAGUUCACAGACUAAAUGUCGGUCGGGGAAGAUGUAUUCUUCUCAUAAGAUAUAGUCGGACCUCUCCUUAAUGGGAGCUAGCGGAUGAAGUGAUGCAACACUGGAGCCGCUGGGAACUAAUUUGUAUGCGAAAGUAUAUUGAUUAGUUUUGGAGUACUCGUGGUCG
# condition info: 37 °C
measured metric: self-splicing fitness (ln)
The reply should be a number, written without any unit.

Completed entries (count: 2):
GGCGAGCAAUAUUACGACUU    0.444
ACGUAGCAAUAUUACGCGAA    -0.935

self-splicing fitness (ln) measured on CCAAAGCAAUAUUACGGCUC = -2.32

Measured self-splicing fitness (ln), UUGCAGCAAUAUUACGGCCC : -0.271

response.value for GGAGAGCAAUAUUACGUGAU (field: self-splicing fitness (ln)) = -1.75

Recorded self-splicing fitness (ln) (sequence CAUCAGCAAUAUUACGACGC ): -1.23

# self-splicing fitness (ln) of UCUUAGCAAUAUUACGACGG = -0.0318

response.value for GAGGAGCAAUAUUACGAUUU (field: self-splicing fitness (ln)) = -0.084

Memo: UAACAGCAAUAUUACGGGGU , reported self-splicing fitness (ln): -2.2

// sample UGUAAGCAAUAUUACGCGGC , its self-splicing fitness (ln) was -1.13

The reported self-splicing fitness (ln) of the sequence CCAGAGCAAUAUUACGGCGA was -2.65

The recorded self-splicing fitness (ln) for CCCGAGCAAUAUUACGUAUA is -2.82

----------
# measurement description: self-splicing fitness, log relative to wild type (ln ratio); higher = more splicing; Tetrahymena group I intron in knt gene, E. coli kanamycin selection, DiMSum; sequences stand for … in CUCUCU…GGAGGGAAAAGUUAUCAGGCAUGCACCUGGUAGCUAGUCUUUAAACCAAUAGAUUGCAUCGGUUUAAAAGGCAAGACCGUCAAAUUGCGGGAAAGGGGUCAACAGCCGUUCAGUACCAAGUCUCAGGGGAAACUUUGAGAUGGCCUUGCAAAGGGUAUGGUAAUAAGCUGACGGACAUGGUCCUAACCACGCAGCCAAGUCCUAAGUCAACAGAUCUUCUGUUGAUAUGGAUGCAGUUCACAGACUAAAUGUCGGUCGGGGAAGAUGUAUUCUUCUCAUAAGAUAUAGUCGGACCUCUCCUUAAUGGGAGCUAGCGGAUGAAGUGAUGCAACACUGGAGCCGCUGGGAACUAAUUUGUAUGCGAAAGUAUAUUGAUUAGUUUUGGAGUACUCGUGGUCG
# condition info: 37 °C
measured metric: self-splicing fitness (ln)
Lab note: jot the number down without any unit.

UGUCAGCAAUAUUACGGUGC    -2.74

Now turn to the next sequence.
Reported self-splicing fitness (ln) of ACUGAGCAAUAUUACGCGCU : -2.1

----------
# measurement description: self-splicing fitness, log relative to wild type (ln ratio); higher = more splicing; Tetrahymena group I intron in knt gene, E. coli kanamycin selection, DiMSum; sequences stand for … in CUCUCU…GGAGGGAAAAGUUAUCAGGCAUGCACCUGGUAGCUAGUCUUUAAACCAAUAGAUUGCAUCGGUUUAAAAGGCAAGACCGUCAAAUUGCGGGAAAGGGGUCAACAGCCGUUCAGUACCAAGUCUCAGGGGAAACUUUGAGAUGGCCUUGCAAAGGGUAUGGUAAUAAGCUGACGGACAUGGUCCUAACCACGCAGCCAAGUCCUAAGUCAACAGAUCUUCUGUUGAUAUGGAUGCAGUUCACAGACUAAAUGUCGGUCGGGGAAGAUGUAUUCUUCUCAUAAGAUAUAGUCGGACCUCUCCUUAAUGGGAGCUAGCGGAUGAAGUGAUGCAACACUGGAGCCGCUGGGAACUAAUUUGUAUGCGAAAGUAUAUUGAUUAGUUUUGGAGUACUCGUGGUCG
# condition info: 37 °C
Threshold rule: self-splicing fitness (ln) greater than or equal to -2 is 1; below that, -1.

GGUCAGCAAUAUUACGCCUU    1

# input Is self-splicing fitness (ln) at least -2? Consider GGAAAGCAAUAUUACGAGUA
# output 1

# input Test whether the sequence UUCUAGCAAUAUUACGAUCC records self-splicing fitness (ln) of -2 or higher.
# output -1

# input API: above_or_equal(metric=self-splicing fitness (ln), cutoff=-2) for item CAAUAGCAAUAUUACGUUUC
# output -1

# input Hi team, for GAUUAGCAAUAUUACGCAUA , is the recorded self-splicing fitness (ln) at or above -2?
# output 1

# input Dear colleague, could you confirm whether CUAUAGCAAUAUUACGGACU has self-splicing fitness (ln) at or above -2?
# output 1

# input API: above_or_equal(metric=self-splicing fitness (ln), cutoff=-2) for item UACCAGCAAUAUUACGUCAC
# output -1

----------
Reported self-splicing fitness (ln) by item:
# measurement description: self-splicing fitness, log relative to wild type (ln ratio); higher = more splicing; Tetrahymena group I intron in knt gene, E. coli kanamycin selection, DiMSum; sequences stand for … in CUCUCU…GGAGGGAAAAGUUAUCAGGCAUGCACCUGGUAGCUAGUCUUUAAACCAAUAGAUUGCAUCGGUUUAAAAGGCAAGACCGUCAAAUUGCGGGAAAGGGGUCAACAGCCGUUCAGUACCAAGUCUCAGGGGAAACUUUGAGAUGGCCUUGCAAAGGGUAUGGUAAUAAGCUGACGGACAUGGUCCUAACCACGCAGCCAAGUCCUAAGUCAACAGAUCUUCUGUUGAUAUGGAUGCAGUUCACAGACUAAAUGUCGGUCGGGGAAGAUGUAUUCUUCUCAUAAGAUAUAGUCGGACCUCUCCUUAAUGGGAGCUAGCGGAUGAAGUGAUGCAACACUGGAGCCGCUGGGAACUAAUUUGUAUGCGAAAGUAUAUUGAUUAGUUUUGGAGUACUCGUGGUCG
# condition info: 37 °C
The response must contain the number and no unit.

Value of self-splicing fitness (ln) reported for the sequence CUCCAGCAAUAUUACGACAG is -0.3

----------
# measurement description: self-splicing fitness, log relative to wild type (ln ratio); higher = more splicing; Tetrahymena group I intron in knt gene, E. coli kanamycin selection, DiMSum; sequences stand for … in CUCUCU…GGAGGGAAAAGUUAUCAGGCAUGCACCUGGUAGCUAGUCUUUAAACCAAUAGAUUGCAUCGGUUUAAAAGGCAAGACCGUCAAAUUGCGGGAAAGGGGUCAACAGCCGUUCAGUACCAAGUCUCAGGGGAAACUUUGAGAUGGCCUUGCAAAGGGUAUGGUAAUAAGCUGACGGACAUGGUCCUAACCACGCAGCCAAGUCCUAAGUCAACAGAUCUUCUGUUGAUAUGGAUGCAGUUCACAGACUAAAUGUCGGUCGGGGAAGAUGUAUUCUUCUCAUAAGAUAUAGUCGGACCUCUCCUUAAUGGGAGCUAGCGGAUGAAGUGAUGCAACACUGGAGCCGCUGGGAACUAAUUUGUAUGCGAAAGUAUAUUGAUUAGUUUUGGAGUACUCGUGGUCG
# condition info: 30 °C
Entries and their measured self-splicing fitness (ln) follow.
Form rule: numeric answer, no unit written next to it.

Use these answered entries as a reference point.
CAGAAGCAAUAUUACGGGAA    -3.21
UAGAAGCAAUAUUACGCCCC    -3.03
CGGCAGCAAUAUUACGGCAG    -0.677
UUAAAGCAAUAUUACGGGAG    -1.34
CUCUAGCAAUAUUACGGCGU    -3.56
AACUAGCAAUAUUACGAAUA    -2.71

As a next step, examine the sequence that follows.
Looking up UACGAGCAAUAUUACGGACC , I found its self-splicing fitness (ln) recorded as -3.28
